Reported IC50 values for the following molecules.
- experimental_target: E. coli MurD (Escherichia coli)
- Sequence (P14900 whole entry): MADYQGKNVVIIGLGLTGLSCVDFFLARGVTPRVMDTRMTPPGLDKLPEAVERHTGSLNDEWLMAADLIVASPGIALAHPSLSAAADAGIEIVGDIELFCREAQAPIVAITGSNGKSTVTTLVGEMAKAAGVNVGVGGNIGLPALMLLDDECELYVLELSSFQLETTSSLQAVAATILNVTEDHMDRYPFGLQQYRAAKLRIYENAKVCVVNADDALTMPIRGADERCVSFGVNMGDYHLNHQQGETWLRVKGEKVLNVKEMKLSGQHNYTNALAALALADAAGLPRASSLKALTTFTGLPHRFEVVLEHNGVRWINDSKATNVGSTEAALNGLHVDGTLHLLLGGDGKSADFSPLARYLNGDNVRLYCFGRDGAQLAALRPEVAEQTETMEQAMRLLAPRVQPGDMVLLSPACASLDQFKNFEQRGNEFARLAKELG
observed_property: IC50

- molecule: "CN(C)c1ccc(/C=C2\\SC(=S)N(Cc3ccc4c(c3)OCO4)C2=O)cc1"
  test_result: "> 100 µM"
- molecule: "CCN(CC)c1ccc(/C=C2\\SC(=S)N(Cc3ccc4c(c3)OCO4)C2=O)cc1"
  test_result: "> 100 µM"
- molecule: "O=C1/C(=C/c2ccccn2)SC(=S)N1Cc1ccc2c(c1)OCO2"
  test_result: "> 100 µM"
- molecule: "O=C1/C(=C/c2c(NCC3CCCO3)nc3ccccn3c2=O)SC(=S)N1Cc1ccc2c(c1)OCO2 (centres unmarked)"
  test_result: "24 µM"
- molecule: "CNc1nc2ccccn2c(=O)c1/C=C1\\SC(=S)N(Cc2ccc3c(c2)OCO3)C1=O"
  test_result: "111 µM"
- molecule: "COc1ccc(/C=C2\\SC(=S)N(Cc3ccc4c(c3)OCO4)C2=O)c(OC)c1"
  test_result: "> 100 µM"
- molecule: "COc1ccccc1/C=C1\\SC(=S)N(Cc2ccc3c(c2)OCO3)C1=O"
  test_result: "> 100 µM"
- molecule: "N#Cc1nc(/C=C2/SC(=S)N(Cc3ccc4c(c3)OCO4)C2=O)oc1N1CCOCC1"
  test_result: "> 100 µM"
